Source of measurements: patent US5959113A

pIC50 listing for selected compounds.
target: cAMP-dependent protein kinase (PKA); assay: Inhibition of cAMP-dependent protein kinase (PKA); details: partially purified PKA from hog brain, histone H1, ATP 10 μM, 2 min at 32 °C; read-out: IC50 Isolated enzyme PKA
Units for pIC50: none; it is -log10 of a concentration expressed in mol/L.

Sample answers from the record:
Cc1cc(C)c(-c2nc(-c3ccncc3)c(-c3ccc(Cl)cc3)[nH]2)c(C)c1CN(C)C [Example 12]    5.30
COC(=O)c1c(C)cc(C)c(-c2nc(-c3ccncc3)c(-c3ccc(Cl)cc3)[nH]2)c1C [Example 9]    5.22

Q: # lookup: pIC50 of Cc1cc(C)c(-c2nc(-c3ccncc3)c(-c3ccc(Cl)cc3)[nH]2)c(C)c1CN1CCOCC1 [Example 11]
Ans: 4.37

Q: Please look up its pIC50: Cc1cc(C)c(-c2nc(-c3ccncc3)c(-c3ccc(Cl)cc3)[nH]2)c(C)c1CN1CCN(C)CC1 [Example 13]
Ans: 5.82

---

Listed molecules paired with reported EC50
Tested on: mouse hair follicles
Assay: Stimulation of cell proliferation in cultured mouse hair follicles
Assay type: cell-based
Conditions: [3H]-thymidine incorporation; CD-1 mouse whisker follicles; read-out: concentration which resulted in a half-maximum stimulation of the DNA synthesis (EC50 value)
Procedure: Stimulation of cell proliferation in cultured mouse hair follicles Mouse hair follicles are isolated and cultured according to the method described by Buhl et al., J. Invest. Dermatol. 92, 315 (1989). […] Hair follicles are cultured in M199 medium which contains 20% FBS and the cell proliferation is determined from the incorporation of [^3 H]-thymidinein DNA. […] The radioactivity incorporated into the follicular DNA is then measured using a liquid scintillation counter.
Entry rule: numbers only, all in µM.

Cc1cc(C)c(-c2nc(-c3ccncc3)c(-c3ccc(Cl)cc3)[nH]2)c(C)c1    0.1

Q: Quick one: EC50 for Nc1cc(N2CCCCC2)nc(N)[n+]1[O-] [minoxidil, reference compound] ?
Ans: 200

---

target: EGF-receptor tyrosine kinase (Homo sapiens, UniProt P00533); construct: A membrane fraction from human A431 cells is used as the enzyme; endogenous in cells; assay: Inhibition of EGF-receptor Tyrosine Kinase; details: EGF-R from A431 cell membranes, 30 °C, 30 min, ATP 10 μM, RR-src peptide 0.75 mM; read-out: IC50 Isolated enzyme EGF-R
Sequence (P00533 25-1210): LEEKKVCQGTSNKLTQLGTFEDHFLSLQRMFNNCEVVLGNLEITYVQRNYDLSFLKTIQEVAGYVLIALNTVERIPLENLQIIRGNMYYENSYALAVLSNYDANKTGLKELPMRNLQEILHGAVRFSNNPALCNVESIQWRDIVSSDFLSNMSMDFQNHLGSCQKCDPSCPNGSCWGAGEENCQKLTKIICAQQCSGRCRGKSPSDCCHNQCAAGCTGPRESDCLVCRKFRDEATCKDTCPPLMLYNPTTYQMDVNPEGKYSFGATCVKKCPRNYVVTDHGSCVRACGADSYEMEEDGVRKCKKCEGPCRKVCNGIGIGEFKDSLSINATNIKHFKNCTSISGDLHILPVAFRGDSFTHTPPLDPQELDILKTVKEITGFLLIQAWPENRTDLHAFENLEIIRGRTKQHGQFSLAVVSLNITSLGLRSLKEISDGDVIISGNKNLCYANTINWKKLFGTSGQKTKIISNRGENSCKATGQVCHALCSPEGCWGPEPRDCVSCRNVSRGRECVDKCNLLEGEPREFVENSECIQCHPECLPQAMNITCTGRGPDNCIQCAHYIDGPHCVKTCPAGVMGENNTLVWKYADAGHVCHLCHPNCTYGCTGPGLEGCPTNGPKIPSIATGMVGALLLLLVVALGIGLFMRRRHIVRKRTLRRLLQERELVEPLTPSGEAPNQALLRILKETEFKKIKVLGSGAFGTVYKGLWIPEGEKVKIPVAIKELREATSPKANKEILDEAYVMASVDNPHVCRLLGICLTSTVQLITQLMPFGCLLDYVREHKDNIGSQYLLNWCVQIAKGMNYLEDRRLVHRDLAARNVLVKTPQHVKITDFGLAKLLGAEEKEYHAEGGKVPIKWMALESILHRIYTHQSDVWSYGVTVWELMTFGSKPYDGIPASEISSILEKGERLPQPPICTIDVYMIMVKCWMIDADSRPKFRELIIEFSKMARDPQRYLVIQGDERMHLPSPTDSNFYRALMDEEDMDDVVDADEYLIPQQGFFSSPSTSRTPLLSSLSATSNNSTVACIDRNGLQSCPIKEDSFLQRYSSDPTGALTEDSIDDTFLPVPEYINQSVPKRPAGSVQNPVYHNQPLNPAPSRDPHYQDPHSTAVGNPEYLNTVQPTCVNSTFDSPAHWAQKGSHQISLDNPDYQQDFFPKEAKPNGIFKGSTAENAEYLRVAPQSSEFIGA
Item-by-item account of IC50
The reply should be a number in µM, with the unit left off.

Q: Given the entry Cc1cc(C)c(-c2nc(-c3ccncc3)c(-c3ccc(Cl)cc3)[nH]2)c(C)c1 , report its measured IC50.
Ans: 0.34

Q: What IC50 value was documented for this compound, Cc1cc(C)c(-c2nc(-c3ccncc3)c(-c3ccc(Cl)cc3)[nH]2)c(C)c1CN(C)C ?
Ans: 0.05

Q: GET /values?readout=IC50&item= Cc1cccc(-c2[nH]c(-c3c(C)cc(C)cc3C)nc2-c2ccncc2)c1
Ans: 0.8

Q: Query (compound): CC(C)c1cccc(C(C)C)c1-c1nc(-c2ccncc2)c(-c2ccc(Cl)cc2)[nH]1 ; field requested: IC50
Ans: 0.13

Q: Would you mind telling me what IC50 value was observed for COC(=O)c1c(C)cc(C)c(-c2nc(-c3ccncc3)c(-c3ccc(Cl)cc3)[nH]2)c1C ?
Ans: 0.14

Q: For Cc1cc(C)c(-c2nc(-c3ccncc3)c(-c3ccc(Cl)cc3)[nH]2)c(C)c1O , what is its reported IC50?
Ans: 0.31

Q: Request the reported IC50 associated with Cc1cc(C)c([N+](=O)[O-])c(C)c1-c1nc(-c2ccncc2)c(-c2ccc(Cl)cc2)[nH]1
Ans: 0.78

Q: What measured IC50 goes with Cc1cc(C)c(-c2nc(-c3ccncc3)c(-c3ccc(Cl)cc3)[nH]2)c(C)c1CN1CCOCC1 ?
Ans: 0.26

Q: Entry Nc1cccc(Cl)c1-c1nc(-c2ccncc2)c(-c2ccc(Cl)cc2)[nH]1 has what IC50?
Ans: 0.29

Q: # query: IC50 of entry Cc1cc(C)c(-c2nc(-c3ccncc3)c(-c3ccc(Cl)cc3)[nH]2)c(C)c1CN1CCN(C)CC1
Ans: 0.05

---

molecular target: cAMP-dependent protein kinase (PKA); assay: Inhibition of cAMP-dependent protein kinase (PKA); details: partially purified PKA from hog brain, histone H1, ATP 10 μM, 2 min at 32 °C; read-out: IC50 Isolated enzyme PKA
Reported IC50 by item:
Give the quantity in µM, number only.

Worked cases, IC50 given:
CC(C)c1cccc(C(C)C)c1-c1nc(-c2ccncc2)c(-c2ccc(Cl)cc2)[nH]1    0.47
Cc1cc(C)c(-c2nc(-c3ccncc3)c(-c3ccc(Cl)cc3)[nH]2)c(C)c1    6.3
Nc1cccc(Cl)c1-c1nc(-c2ccncc2)c(-c2ccc(Cl)cc2)[nH]1    1.8

# context switch: different compound, same IC50
Q: What IC50 value was documented for this compound, Cc1cccc(-c2[nH]c(-c3c(C)cc(C)cc3C)nc2-c2ccncc2)c1 ?
Ans: 190

---

target: p56^Ick tyrosine kinase (Homo sapiens, UniProt P06239); assay: Inhibition of p56^Ick tyrosine kinase; settings: human recombinant p56lck, 30 °C, 30 min, ATP 10 μM, RR-src peptide 0.75 mM; read-out: IC50 Isolated enzyme p56^lck
Sequence (P06239 whole entry): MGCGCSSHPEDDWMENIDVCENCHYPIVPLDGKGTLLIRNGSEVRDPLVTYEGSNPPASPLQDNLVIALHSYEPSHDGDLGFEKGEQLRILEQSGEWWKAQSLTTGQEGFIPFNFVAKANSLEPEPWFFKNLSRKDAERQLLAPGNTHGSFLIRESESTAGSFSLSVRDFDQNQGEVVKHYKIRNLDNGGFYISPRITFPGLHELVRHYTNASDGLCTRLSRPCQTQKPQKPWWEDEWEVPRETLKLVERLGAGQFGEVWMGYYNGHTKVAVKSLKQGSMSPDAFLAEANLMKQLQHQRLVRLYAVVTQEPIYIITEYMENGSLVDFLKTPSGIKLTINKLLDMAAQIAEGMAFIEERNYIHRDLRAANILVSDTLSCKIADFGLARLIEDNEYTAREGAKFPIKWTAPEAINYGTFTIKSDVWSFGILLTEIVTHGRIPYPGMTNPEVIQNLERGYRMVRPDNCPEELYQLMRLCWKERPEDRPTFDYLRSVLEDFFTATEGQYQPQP
Field: label. Allowed values: yes (1) (IC50 < 5 µM) or no (0) (IC50 >= 5 µM).

Examples with answers:
Cc1cc(C)c(-c2nc(-c3ccncc3)c(-c3ccc(Cl)cc3)[nH]2)c(C)c1    yes (1)
Cc1cccc(-c2[nH]c(-c3c(C)cc(C)cc3C)nc2-c2ccncc2)c1    no (0)
Cc1cc(C)c(-c2nc(-c3ccncc3)c(-c3ccc(Cl)cc3)[nH]2)c(C)c1CN(C)C    yes (1)
CC(C)c1cccc(C(C)C)c1-c1nc(-c2ccncc2)c(-c2ccc(Cl)cc2)[nH]1    yes (1)
Nc1cccc(Cl)c1-c1nc(-c2ccncc2)c(-c2ccc(Cl)cc2)[nH]1    no (0)

Q: Criterion: IC50 strictly below 5 µM. Is it met by COC(=O)c1c(C)cc(C)c(-c2nc(-c3ccncc3)c(-c3ccc(Cl)cc3)[nH]2)c1C ?
Ans: yes (1)

Q: Is IC50 of Cc1cc(C)c(-c2nc(-c3ccncc3)c(-c3ccc(Cl)cc3)[nH]2)c(C)c1O strictly below 5 µM?
Ans: yes (1)

Q: For Cc1cc(C)c(-c2nc(-c3ccncc3)c(-c3ccc(Cl)cc3)[nH]2)c(C)c1CN1CCN(C)CC1 , is the recorded IC50 below the cut-off of 5 µM?
Ans: yes (1)

---

molecular target: protein kinase C (PKC); experiment: Inhibition of protein kinase C (PKC); settings: partially purified PKC from hog brain, histone H1, ATP 10 μM, 2 min at 32 °C; read-out: IC50 Isolated enzyme PCK
IC50 strictly under 80 µM means true; at 80 µM or over means false.

Solved entries:
Nc1cccc(Cl)c1-c1nc(-c2ccncc2)c(-c2ccc(Cl)cc2)[nH]1 [Example 18]    true
Cc1cc(C)c(-c2nc(-c3ccncc3)c(-c3ccc(Cl)cc3)[nH]2)c(C)c1 [Example 1]    false
Cc1cc(C)c(-c2nc(-c3ccncc3)c(-c3ccc(Cl)cc3)[nH]2)c(C)c1CN1CCN(C)CC1 [Example 13]    true
Cc1cc(C)c(-c2nc(-c3ccncc3)c(-c3ccc(Cl)cc3)[nH]2)c(C)c1CN1CCOCC1 [Example 11]    false
Cc1cc(C)c(-c2nc(-c3ccncc3)c(-c3ccc(Cl)cc3)[nH]2)c(C)c1CN(C)C [Example 12]    true
Cc1cccc(-c2[nH]c(-c3c(C)cc(C)cc3C)nc2-c2ccncc2)c1 [Example 4]    false

Moving on to the next compound.
Q: Criterion: IC50 strictly below 80 µM. Is it met by CC(C)c1cccc(C(C)C)c1-c1nc(-c2ccncc2)c(-c2ccc(Cl)cc2)[nH]1 [Example 7] ?
Ans: false

---

test system: HaCaT cells; assay: Inhibition of HaCaT cell proliferation; format: cell-based; details: Homo sapiens, [3H]-thymidine incorporation, 48 h at 37 °C
Reported IC50 by item:
Response body: numeric value in nM, unit text excluded.

Here's what some known entries look like.
CC(C)c1cccc(C(C)C)c1-c1nc(-c2ccncc2)c(-c2ccc(Cl)cc2)[nH]1    3500
Nc1cccc(Cl)c1-c1nc(-c2ccncc2)c(-c2ccc(Cl)cc2)[nH]1    2000
Cc1cccc(-c2[nH]c(-c3c(C)cc(C)cc3C)nc2-c2ccncc2)c1    2000
Cc1cc(C)c([N+](=O)[O-])c(C)c1-c1nc(-c2ccncc2)c(-c2ccc(Cl)cc2)[nH]1    670
COC(=O)c1c(C)cc(C)c(-c2nc(-c3ccncc3)c(-c3ccc(Cl)cc3)[nH]2)c1C    230

Q: What does the record list as IC50 for Cc1cc(C)c(-c2nc(-c3ccncc3)c(-c3ccc(Cl)cc3)[nH]2)c(C)c1CN1CCN(C)CC1 ?
Ans: 100

Q: Which IC50 is reported for this compound? Cc1cc(C)c(-c2nc(-c3ccncc3)c(-c3ccc(Cl)cc3)[nH]2)c(C)c1CN1CCOCC1
Ans: 100

Q: For the compound shown here, Cc1cc(C)c(-c2nc(-c3ccncc3)c(-c3ccc(Cl)cc3)[nH]2)c(C)c1O , give the reported IC50.
Ans: 800

Q: Suppose we examine the compound Cc1cc(C)c(-c2nc(-c3ccncc3)c(-c3ccc(Cl)cc3)[nH]2)c(C)c1 ; what IC50 value has been reported?
Ans: 2000

Q: Requested read-out: IC50. Entry: Cc1cc(C)c(-c2nc(-c3ccncc3)c(-c3ccc(Cl)cc3)[nH]2)c(C)c1CN(C)C
Ans: 570
